tested on: Glycine max; assay: Inhibition of soybean LOX assessed as inhibition of sodium linoleate to 13-hydroperoxylinoleic acid conversion at 0.1 mM by UV-visible spectrophotometry
Activity calls are given as the source filed them. The calls are words filed in the database; no cut-off is given here.
parameter_measured: inhibition

1. O=C1CC[C@@H](Cn2ccnc2)N1Cc1ccccc1 = 13%
2. CC(Cc1ccc(O)c(O)c1)C(C)Cc1ccc(O)c(O)c1 (configuration not stated) = 84%
3. COC(=O)c1cncn1C[C@@H]1CCC(=O)N1Cc1ccc(C(=O)O)cc1 = inactive
4. O=C(O)c1cncn1C[C@@H]1CCC(=O)N1Cc1ccccc1 = 81%
5. O=C1CC[C@@H](Cn2ccnc2)N1Cc1ccccc1-c1nn[nH]n1 = 5.2%
6. COC(=O)c1ccc(CN2C(=O)CC[C@H]2Cn2ccnc2)cc1 = inactive

In: Under Glycine max: inhibition value of O=C1CC[C@@H](Cn2ccnc2)N1Cc1cccc(O)c1 ?
Out: inactive
